# Test system: HEK-293T
# run description: Multiplex assay against HEK293T
# Format: toxicity, cell-based
# conditions used: human, 48 h, 1 µM, compound concentration 1 uM, replicate 1
property label: Population Membrane Permeable-Phenotype (%)
Enter your answer as a number in %; do not include the unit.

Example compounds with recorded Population Membrane Permeable-Phenotype (%):
compound | target or system | numeric value
O=C(O)c1cc2ccccc2c(Cc2c(O)c(C(=O)O)cc3ccccc23)c1O | HEK-293T | 1
O=S(=O)(c1ccccc1)c1cnc2c(N3CCNCC3)cccc2c1 [INTEPIRDINE] | HEK-293T | 1

Q. What value of Population Membrane Permeable-Phenotype (%) has been reported for the following compound? "C[C@H](NC(=O)c1c(C(F)F)nn(C)c1Oc1cccc(C(F)(F)F)c1)c1ccc(C(=O)O)cc1"
A. 1

Q. Could you do the same for "Cc1ccc(/C(=C\CN2CCCC2)c2ccccn2)cc1" , please?
A. 2

Q. Could you do the same for "C[C@@H]1C[C@H]2[C@@H]3CCC4=CC(=O)C=C[C@]4(C)[C@@]3(F)[C@@H](O)C[C@]2(C)[C@@]1(O)C(=O)CO" , please?
A. 1

Q. Could you do the same for "O=C(NCC(=O)N1CC[C@H](N[C@H]2CC[C@@](O)(c3ccc(-c4ncccn4)cn3)CC2)C1)c1cccc(C(F)(F)F)c1" , please?
A. 1

Q. Could you do the same for "COc1c(C)cc(NC(=O)c2nn(Cc3ccc(F)cc3)c3c2CN(C(=O)c2ccc[nH]2)C[C@]3(C)C(N)=O)cc1C" , please?
A. 1

====

# Test system: HEK-293T
# run description: Multiplex assay against HEK293T
# Assay type: toxicity, cell-based
# conditions used: human, 24 h, 1 µM, compound concentration 1 uM, replicate 1
property label: Total Cell Count
Please respond with just the number, no unit label.

Example molecules with recorded Total Cell Count:
molecule | target or system | Total Cell Count
COc1cc(C(=O)N(CCCc2ccccc2)Cc2ccc(CC(=O)O)cc2)cc(OC)c1C | HEK-293T | 483
CC1(COc2ccc3c(c2)ncn3-c2ccc3cccc(N4CCC(N)CC4)c3n2)COC1 [CRENOLANIB] | HEK-293T | 547
CCCC(CCC)C(=O)O [VALPROIC ACID] | HEK-293T | 663
N#Cc1c(N)nc(SCc2csc(-c3ccc(Cl)cc3)n2)c(C#N)c1-c1ccc(OCCO)cc1 [CAPADENOSON] | HEK-293T | 450
CN(C)CCCc1cc(C(=O)Nc2ccc(-c3ccncc3)cc2)ccc1O.Cl.Cl | HEK-293T | 542
CC[C@H]1OC(=O)[C@H](C)[C@@H](O[C@H]2C[C@@](C)(OC)[C@@H](O)[C@H](C)O2)[C@H](C)[C@@H](O[C@@H]2O[C@H](C)C[C@H](N(C)C)[C@H]2O)[C@@]2(C)CC(C)=C(O2)[C@H](C)[C@@H](O)[C@]1(C)O | HEK-293T | 493

Q. Provide value of Total Cell Count for this record tested with HEK-293T: C[C@H]1[C@H]2CC[C@H]3[C@@H]4CC=C5C[C@@H](N(C)C)CC[C@]5(C)[C@H]4CC[C@]23CN1C [CONESSINE]
A. 514

====

# System: Fibroblast
# run description: Multiplex assay against human fibroblast
# Format: toxicity, cell-based
# conditions used: 24 h, 1 µM, compound concentration 1 uM, replicate 2
property label: Population Healthy Nuclei (%)
Enter your answer as a number in %; do not include the unit.

Example compounds with recorded Population Healthy Nuclei (%):
compound | quantity unit | numeric value
C[C@H]1[C@H]2CC[C@H]3[C@@H]4CC=C5C[C@@H](N(C)C)CC[C@]5(C)[C@H]4CC[C@]23CN1C [CONESSINE] | % | 48
Cc1ccccc1C(=O)Nc1ccc(C(=O)N2CCCC(N(C)C)c3ccccc32)cc1.Cl (stereo not drawn) | % | 49
CSc1ccccc1N1CCN(CCCCCC(=O)NC2CCCc3ccccc32)CC1.Cl (stereo not drawn) | % | 43
N[C@@]1(C(=O)O)CO[C@H]2[C@H](C(=O)O)[C@H]21 [LY-379268] | % | 41
O=C(NCCO)c1cccc(-c2cc(Nc3ccc(OC(F)(F)F)cc3)ncn2)c1 | % | 50
CSCC[C@H](NC=O)C(=O)N[C@@H](CC(C)C)C(=O)N[C@@H](Cc1ccccc1)C(=O)O | % | 46
COc1cc(NC(=O)CCN2CCC(OC(=O)Nc3ccccc3-c3ccccc3)CC2)c(Cl)cc1CNC[C@H](O)c1ccc(O)c2[nH]c(=O)ccc12 [BATEFENTEROL] | % | 59

// next entry
Q. Provide value of Population Healthy Nuclei (%) for this record tested with Fibroblast: COc1ccc2c(c1)C(C(=O)N(Cc1ccc(N(C)C)cc1)c1ccc(C(C)C)cc1)CCC2.Cl (stereo not drawn)
A. 59
